Assignment: determine reported Log DR against h-SCP, cAMP for the given binders.
Target: T1, human CRH receptor type 2 (human, UniProt Q13324 1-411)
T1 sequence (looked up): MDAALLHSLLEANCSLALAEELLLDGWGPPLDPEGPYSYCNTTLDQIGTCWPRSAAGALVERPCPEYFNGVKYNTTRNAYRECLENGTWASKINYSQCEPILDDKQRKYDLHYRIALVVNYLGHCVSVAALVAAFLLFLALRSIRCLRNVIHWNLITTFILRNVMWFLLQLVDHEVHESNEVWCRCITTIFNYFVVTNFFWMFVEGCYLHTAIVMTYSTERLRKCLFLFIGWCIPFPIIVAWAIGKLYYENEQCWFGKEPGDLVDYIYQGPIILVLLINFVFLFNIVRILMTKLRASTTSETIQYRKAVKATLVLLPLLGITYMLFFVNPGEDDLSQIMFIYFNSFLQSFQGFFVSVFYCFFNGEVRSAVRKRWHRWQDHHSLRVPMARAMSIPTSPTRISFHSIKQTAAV
Assay: cell-based or functional assay
No end group written: not given here.
Field: numeric (log10 ratio). Do not append units.

Entry TKFTLSLDVPTNIMNLLFNIAKAKNLRACAAANAHLMAQI (NES-PEG (about 20 kDa) on Cys 29; C-terminal amide) [Pegylated Cys-variant CRHR2 peptide agonist (NES linker, PEG about 20 kDa), SEQ ID NO: 83] — recorded Log DR against h-SCP, cAMP = 1.63

# binder TKFTLSLDVPTNIMNCLFNIAKAKNLRAQAAANAHLMAQI-NH2 [Cys-variant CRHR2 peptide agonist, SEQ ID NO: 17] ; its Log DR against h-SCP, cAMP = 0.02

Short answer for TKFTLSLDVPTNIMNLLFNIAKAKNLRAQCAANAHLMAQI-NH2 [Cys-variant CRHR2 peptide agonist, SEQ ID NO: 31] : Log DR against h-SCP, cAMP was 1.61

Log DR against h-SCP, cAMP reading for TKFTLSLDVCTNIMNLLFNIAKAKNLRAQAAANAHLMAQI-NH2 [Cys-variant CRHR2 peptide agonist, SEQ ID NO: 11] : 0.82
